# SYSTEM_TESTED: human CXCR3 (Homo sapiens, UniProt P49682)
# Construct: expressed in transfected cells; host or cells: CHO cells (membrane preparation)
# EXPERIMENT_NOTES: [35S]GTPγS exchange assay, CXCR3 receptor inhibition (hI-TAC-induced GTPγS-binding)
# Type: biochemical
# RUN_CONDITIONS: -log IC50 (molar) inhibiting 50% of specific I-TAC-induced GTPγS-binding; membranes of human CXCR3-transfected CHO cells; read-out: pIC50 (converted)
// boundary case: IC50 equal to 2000 nM maps to 0; strictly smaller maps to 1

Asked: Field: below-cutoff. Rule: recorded IC50 strictly less than 2000 nM. Subject: O=C1CCC(c2ccccc2)(C2CCN(Cc3ccc(F)c(Br)c3)CC2)C(=O)N1 (centres unmarked)
Given back: 0

Asked: Same question, COC(=O)CCN1C(=O)CCC(c2ccccc2)(C2CCN(Cc3ccc(Cl)cc3Cl)CC2)C1=O (centres unmarked) this time
Given back: 1

Asked: Same question, COc1ccc(CN2CCC(C3(c4ccccc4)CCC(=O)NC3=O)CC2)cc1 (centres unmarked) this time
Given back: 0

Asked: Same question, O=C1CCC(c2ccccc2)(C2CCN(Cc3ccc(Br)c(F)c3)CC2)C(=O)N1 (centres unmarked) [Compound 16a] this time
Given back: 1

Asked: Same question, O=C1CCC(c2ccccc2)(C2CCN(Cc3ccc(F)cc3)CC2)C(=O)N1 (centres unmarked) [Compound 44] this time
Given back: 0

Asked: Same question, O=C1CCC(c2ccc(F)cc2)(C2CCN(Cc3ccc(F)c(F)c3F)CC2)C(=O)N1 (centres unmarked) this time
Given back: 1

Asked: Same question, O=C1CCC(c2ccc(F)cc2)(C2CCN(Cc3ccc(Cl)cc3)CC2)C(=O)N1 (centres unmarked) this time
Given back: 1

Asked: Same question, CC(c1ccc(Br)cc1)N1CCC(C2(c3ccncc3)CCC(=O)NC2=O)CC1 (centres unmarked) this time
Given back: 1

Asked: Same question, CCCN1C(=O)CCC(c2ccccc2)(C2CCN(Cc3ccc(Br)cc3)CC2)C1=O (centres unmarked) this time
Given back: 0

Asked: Same question, O=C1CCC(c2ccccc2)(C2CCN(Cc3ccc(F)cc3)CC2)C(=O)N1 (centres unmarked) [Compound 43] this time
Given back: 0

Asked: Same question, O=C1CCC(c2cccc(C(=O)O)c2)(C2CCN(Cc3ccc(Br)c(F)c3)CC2)C(=O)N1 (centres unmarked) this time
Given back: 1

Asked: Same question, Cc1cc(CN2CCC(C3(c4ccc(F)cc4F)CCC(=O)NC3=O)CC2)ccc1Br (centres unmarked) this time
Given back: 1

Asked: Same question, Cc1cc(CN2CCC(C3(c4ccccc4)CCC(=O)NC3=O)CC2)ccc1F (centres unmarked) this time
Given back: 1

Asked: Same question, O=C1CCC(c2ccccc2)(C2CCN(Cc3ccc(Cl)c(F)c3)CC2)C(=O)N1 (single isomer, unassigned) [Compound 40] this time
Given back: 1

Asked: Same question, CN1C(=O)CCC(c2ccccc2)(C2CCN(Cc3ccc(Cl)cc3)CC2)C1=O (centres unmarked) this time
Given back: 1

---

Exercise: state measured IC50 for each of the molecules provided.
# SYSTEM_TESTED: human CXCR3 (Homo sapiens)
# Construct: expressed in transfected cells; host or cells: CHO cells (membrane preparation)
# Sequence (P49682 1-368): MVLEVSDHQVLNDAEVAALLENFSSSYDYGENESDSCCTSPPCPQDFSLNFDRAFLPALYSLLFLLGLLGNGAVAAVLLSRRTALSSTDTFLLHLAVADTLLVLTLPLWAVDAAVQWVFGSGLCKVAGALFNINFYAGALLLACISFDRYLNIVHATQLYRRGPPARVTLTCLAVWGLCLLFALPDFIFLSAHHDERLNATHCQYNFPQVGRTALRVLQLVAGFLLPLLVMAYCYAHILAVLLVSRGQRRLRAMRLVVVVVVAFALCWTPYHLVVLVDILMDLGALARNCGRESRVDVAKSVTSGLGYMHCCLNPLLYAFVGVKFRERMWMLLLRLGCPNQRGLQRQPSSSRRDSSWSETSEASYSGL
# EXPERIMENT_NOTES: [35S]GTPγS exchange assay, CXCR3 receptor inhibition (hI-TAC-induced GTPγS-binding)
# Format: biochemical
# RUN_CONDITIONS: -log IC50 (molar) inhibiting 50% of specific I-TAC-induced GTPγS-binding; membranes of human CXCR3-transfected CHO cells; read-out: pIC50 (converted)
Entry rule: numbers only, all in nM.

Asked: # IC50 lookup, item COc1cccc(C2(C3CCN(Cc4ccc(Cl)c(F)c4)CC3)CCC(=O)NC2=O)c1 (centres unmarked)
Given back: 251

Asked: Same question, O=C1CCC(c2ccc(F)cc2)(C2CCN(Cc3ccc(F)c(F)c3)CC2)C(=O)N1 (centres unmarked) this time
Given back: 3980

Asked: Same question, Cc1cccc(C2(C3CCN(Cc4ccc(C(F)(F)F)cc4)CC3)CCC(=O)NC2=O)c1 (centres unmarked) this time
Given back: 3980

Asked: Same question, Cc1cccc(C2(C3CCN(Cc4ccc(Cl)c(F)c4)CC3)CCC(=O)NC2=O)c1 (centres unmarked) this time
Given back: 794

Asked: Same question, Cc1ccc(CN2CCC(C3(c4cccc(C)c4)CCC(=O)NC3=O)CC2)cc1 (centres unmarked) this time
Given back: 2510
